assay_explanation: chemical genetic growth profiling, strain panel (AID 1159580);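 further: tested at 20 µM; growth read once vehicle control cultures reached saturation at 30 °C; 1 = growth at the plate median or of vehicle wells; lower values mean less growth of the strain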
cond: S. cerevisiae deletion strains, growth OD, locus YLR342W, strain FKS1 (second series)
The whole screen tested about 5,500 compounds, of which about 2,000 (36%) were called active. Inconclusive results (about 18%) are left out. No stated cut-off is given here; in the data, active means normalized growth mostly below about 0.91 (no sharp cut-off); inconclusive means no clear call, values can overlap the other calls; inactive means mostly above about 0.92. The list shows a part of the results.
Please answer using one outcome listed in class 1 = active, class 0 = inactive

A selection of reference data follows.
>  <molecule>
CN1Cc2c(ccc3c2OCO3)C2C(O)Cc3cc4c(cc3C21)OCO4 (stereo unspecified)

>  <assigned_label>
class 0

$$$$
>  <molecule>
Oc1c(Cl)c(Cl)c(Cl)c(Cl)c1Cl

>  <assigned_label>
class 1

$$$$
>  <molecule>
O=C(/C=C/C=C/c1ccc2c(c1)OCO2)N1CCCCC1

>  <assigned_label>
class 1

$$$$
>  <molecule>
COc1cc(O)c2c(=O)cc(C)oc2c1CC=C(C)C

>  <assigned_label>
class 1

$$$$
>  <molecule>
Cc1c(O)cc(O)c2c(=O)c(-c3ccc(O)cc3)coc12

>  <assigned_label>
class 0

$$$$

**Query** Field: outcome | Entry: COC(=O)C1[C@H]2C[C@H]3c4[nH]c5ccccc5c4CCN3C[C@@H]2CC[C@@H]1O (stereo partly specified)
**Result** class 0

**Query** Which outcome was assigned to CCC(C(=O)O)c1ccccc1 (stereo unspecified) in this test?
**Result** class 0
